study_system: 5-HT2C receptors (Homo sapiens, UniProt P28335)
Sequence (P28335 33-458): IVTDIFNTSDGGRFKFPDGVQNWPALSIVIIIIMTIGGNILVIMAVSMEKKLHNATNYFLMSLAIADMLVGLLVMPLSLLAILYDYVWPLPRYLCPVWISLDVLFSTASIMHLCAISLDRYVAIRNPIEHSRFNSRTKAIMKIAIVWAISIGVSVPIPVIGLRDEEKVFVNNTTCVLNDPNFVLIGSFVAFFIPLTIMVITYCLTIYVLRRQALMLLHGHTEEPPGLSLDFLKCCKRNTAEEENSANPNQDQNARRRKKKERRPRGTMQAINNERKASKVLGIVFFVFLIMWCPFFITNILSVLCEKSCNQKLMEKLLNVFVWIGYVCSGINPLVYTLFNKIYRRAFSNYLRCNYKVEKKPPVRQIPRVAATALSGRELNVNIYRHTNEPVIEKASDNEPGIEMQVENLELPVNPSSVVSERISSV
Kindly supply the reported Ki values for the records listed here.
Dear colleague, please return just the value in nM, with no unit written.

Problem: Record request: Ki value, item "FC(F)(F)c1cccc(N2CCN(Cc3cccc4c3OCO4)CC2)c1"
Solution: 753

Problem: Now this one: "FC(F)(F)c1ccccc1N1CCN(Cc2ccc3c(c2)OCO3)CC1"
Solution: 924

Problem: Now this one: "FC(F)(F)c1ccccc1N1CCN(Cc2cccc3c2OCO3)CC1"
Solution: 868

Problem: Now this one: "FC(F)(F)c1cccc(N2CCN(Cc3ccc4c(c3)OCO4)CC2)c1"
Solution: 430

###

# Ki measurements, system: 5-HT7 receptors (Homo sapiens, UniProt P34969)
# Sequence (P34969 whole entry): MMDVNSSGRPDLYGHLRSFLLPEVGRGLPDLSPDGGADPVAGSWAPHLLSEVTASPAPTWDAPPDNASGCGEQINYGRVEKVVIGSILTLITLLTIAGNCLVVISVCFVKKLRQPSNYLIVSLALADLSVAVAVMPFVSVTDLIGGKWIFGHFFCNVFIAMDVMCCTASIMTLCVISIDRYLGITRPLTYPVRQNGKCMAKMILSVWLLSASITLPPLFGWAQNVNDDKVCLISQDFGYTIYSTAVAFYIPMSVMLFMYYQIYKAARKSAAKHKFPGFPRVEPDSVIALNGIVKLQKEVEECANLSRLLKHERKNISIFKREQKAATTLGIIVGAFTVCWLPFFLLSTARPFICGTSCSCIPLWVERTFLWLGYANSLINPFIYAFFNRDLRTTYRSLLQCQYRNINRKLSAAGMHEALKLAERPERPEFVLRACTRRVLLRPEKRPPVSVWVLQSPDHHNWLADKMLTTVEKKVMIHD
Dear colleague, please return just the value in nM, with no unit written.

Problem: Record request: Ki value, item FC(F)(F)c1ccccc1N1CCN(Cc2ccc3c(c2)OCO3)CC1 [Compound 4, 2-TFMPP-3,4-MDBP]
Solution: 462

Problem: Now this one: FC(F)(F)c1cccc(N2CCN(Cc3ccc4c(c3)OCO4)CC2)c1 [Compound 5, 3-TFMPP-3,4-MDBP]
Solution: 516

Problem: Now this one: FC(F)(F)c1ccccc1N1CCN(Cc2cccc3c2OCO3)CC1 [Compound 1, 2-TFMPP-2,3-MDBP]
Solution: 165

Problem: Now this one: FC(F)(F)c1cccc(N2CCN(Cc3cccc4c3OCO4)CC2)c1 [Compound 2, 3-TFMPP-2,3-MDBP]
Solution: 747

###

Kindly supply the reported pKi values for the records listed here.
study_system: 5-HT2A receptors (Homo sapiens)
Construct: University of North Carolina Psychoactive Drug Screening Project (PDSP), contract testing
Sequence (P28223 whole entry): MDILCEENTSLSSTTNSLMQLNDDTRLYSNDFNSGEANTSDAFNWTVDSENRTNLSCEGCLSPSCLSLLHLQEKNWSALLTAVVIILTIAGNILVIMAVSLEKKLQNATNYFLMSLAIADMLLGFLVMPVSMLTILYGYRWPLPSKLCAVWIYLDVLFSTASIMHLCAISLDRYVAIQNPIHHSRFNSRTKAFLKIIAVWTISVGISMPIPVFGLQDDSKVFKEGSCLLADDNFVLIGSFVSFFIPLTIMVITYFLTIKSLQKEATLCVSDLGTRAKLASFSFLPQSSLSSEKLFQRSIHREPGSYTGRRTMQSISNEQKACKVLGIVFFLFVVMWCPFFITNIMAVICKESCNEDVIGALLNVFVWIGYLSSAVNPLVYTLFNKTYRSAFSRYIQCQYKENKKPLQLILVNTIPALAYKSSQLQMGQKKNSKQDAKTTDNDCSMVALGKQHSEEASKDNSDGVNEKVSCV
test_summary: PDSP radioligand competition binding, 5-HT2A
condition_details: secondary binding assay, average of n = 3
pKi: −log10 of the molar value.

Problem: Record request: pKi value, item FC(F)(F)c1cccc(N2CCN(Cc3cccc4c3OCO4)CC2)c1 [Compound 2, 3-TFMPP-2,3-MDBP]
Solution: 6.43

Problem: Now this one: FC(F)(F)c1cccc(N2CCN(Cc3ccc4c(c3)OCO4)CC2)c1 [Compound 5, 3-TFMPP-3,4-MDBP]
Solution: < 6.00

Problem: Now this one: FC(F)(F)c1ccc(N2CCN(Cc3cccc4c3OCO4)CC2)cc1 [Compound 3, 4-TFMPP-2,3-MD]
Solution: < 6.00

Problem: Now this one: FC(F)(F)c1ccc(N2CCN(Cc3ccc4c(c3)OCO4)CC2)cc1 [Compound 6, 4-TFMPP-3,4-MDBP]
Solution: < 6.00

Problem: Now this one: FC(F)(F)c1ccccc1N1CCN(Cc2ccc3c(c2)OCO3)CC1 [Compound 4, 2-TFMPP-3,4-MDBP]
Solution: < 6.00

Problem: Now this one: FC(F)(F)c1ccccc1N1CCN(Cc2cccc3c2OCO3)CC1 [Compound 1, 2-TFMPP-2,3-MDBP]
Solution: < 6.00
